# assayRemarks: Pharmacokinetics (plasma, lung at 24 h) after single oral dosing in male Sprague-Dawley rats
# appliedConditions: male, Sprague-Dawley, rat, in vivo, po, 1000 mg/kg, AUClast, male SD rat plasma, single oral 1000 mg/kg (Group 4), one outlier excluded, mean
measureName: AUC(0-t) (ng·h/mL)
I only need the number, in ng·h/mL, no unit after it.

Query block: Supply measured AUC(0-t) of Cc1c(-c2ccc(O)cc2)n(Cc2ccc(OCCN3CCCCC3)cc2)c2ccc(O)cc12 [Pipendoxifene] in your reply.
Result block: 5710

* * *

# assayRemarks: in vivo
# appliedConditions: female, 129S1, mouse, 250 mg/kg, Mean Tmax (plasma), range
measureName: Tmax

Query block: Supply measured Tmax of Cc1c(-c2ccc(O)cc2)n(Cc2ccc(OCCN3CCCCC3)cc2)c2ccc(O)cc12 [Pipendoxifene] in your reply.
Result block: 2 to 6 h

* * *

# assayRemarks: Pharmacokinetics (plasma, lung at 24 h) after single oral dosing in male Sprague-Dawley rats
# appliedConditions: male, Sprague-Dawley, rat, in vivo, po, 750 mg/kg, AUClast, male SD rat plasma, single oral 750 mg/kg (Group 3), individual rats 456, 457, 458
measureName: AUC(0-t) (ng·h/mL)
I only need the number, in ng·h/mL, no unit after it.

Query block: Supply measured AUC(0-t) of Cc1c(-c2ccc(O)cc2)n(Cc2ccc(OCCN3CCCCC3)cc2)c2ccc(O)cc12 [Pipendoxifene] in your reply.
Result block: 7530

* * *

# assayRemarks: Pharmacokinetics (plasma and lung tissue) after single and 5-day repeat oral dosing in female 129S1 mice
# appliedConditions: female, 129S1, mouse, plasma, oral, 50 mg/kg, Plasma Conc., individual mouse, 50 mg/kg PO multiple, 5-day, dose; 2.0 hr
measureName: concentration at 2 hr (ng/mL)
I only need the number, in ng/mL, no unit after it.

Query block: Supply measured concentration at 2 hr of Cc1c(-c2ccc(O)cc2)n(Cc2ccc(OCCN3CCCCC3)cc2)c2ccc(O)cc12 [Pipendoxifene] in your reply.
Result block: 113

* * *

# assayRemarks: Pharmacokinetics (plasma, lung at 24 h) after single oral dosing in male Sprague-Dawley rats
# appliedConditions: male, Sprague-Dawley, rat, plasma, po, 1000 mg/kg, Plasma concentration, male SD rat, single oral 1000 mg/kg (Group 4), one outlier excluded, 6 hr, individual rats 459, 460, 461
measureName: concentration at 6 hr

Query block: Supply measured concentration at 6 hr of Cc1c(-c2ccc(O)cc2)n(Cc2ccc(OCCN3CCCCC3)cc2)c2ccc(O)cc12 [Pipendoxifene] in your reply.
Result block: 365 ng/mL

* * *

# assayRemarks: in vitro
# appliedConditions: human, EC50, compound toxicity in the context of infection, total cell numbers per well; average±sem of 5 independent experiments
measureName: pEC50
// scale note: pEC50 = -log10(conc_M); give the bare number

Query block: Supply measured pEC50 of `COc1ccc(C[C@H](N)C(=O)N[C@H]2[C@@H](O)[C@H](n3cnc4c(N(C)C)ncnc43)O[C@@H]2CO)cc1` in your reply.
Result block: 6.26

* * *

# assayRemarks: in vivo
# appliedConditions: male, Sprague-Dawley, rat, po, 1000 mg/kg, tmax
measureName: Tmax (h)
I only need the number, in h, no unit after it.

Query block: Supply measured Tmax of Cc1c(-c2ccc(O)cc2)n(Cc2ccc(OCCN3CCCCC3)cc2)c2ccc(O)cc12 [Pipendoxifene] in your reply.
Result block: 6

* * *

# assayRemarks: Pharmacokinetics (plasma, lung at 24 h) after single oral dosing in male Sprague-Dawley rats
# appliedConditions: male, Sprague-Dawley, rat, in vivo, po, 1000 mg/kg, t1/2, male SD rat plasma, single oral 1000 mg/kg (Group 4), all data included, mean
measureName: half-life (h)
I only need the number, in h, no unit after it.

Query block: Supply measured half-life of Cc1c(-c2ccc(O)cc2)n(Cc2ccc(OCCN3CCCCC3)cc2)c2ccc(O)cc12 [Pipendoxifene] in your reply.
Result block: 4.88

* * *

# assayRemarks: Pharmacokinetics (plasma, lung at 24 h) after single oral dosing in male Sprague-Dawley rats
# appliedConditions: male, Sprague-Dawley, rat, in vivo, po, 1000 mg/kg, t1/2, male SD rat plasma, single oral 1000 mg/kg (Group 4), one outlier excluded, individual rats 459, 460
measureName: half-life (h)
I only need the number, in h, no unit after it.

Query block: Supply measured half-life of Cc1c(-c2ccc(O)cc2)n(Cc2ccc(OCCN3CCCCC3)cc2)c2ccc(O)cc12 [Pipendoxifene] in your reply.
Result block: 4.3

* * *

# assayRemarks: Pharmacokinetics (plasma and lung tissue) after single and 5-day repeat oral dosing in female 129S1 mice
# appliedConditions: female, 129S1, mouse, in vivo, po, 50 mg/kg, MRTlast, plasma; 50 mg/kg PO single dose
measureName: MRT last
Write your answer as a measured quantity: the number, then the unit.

Query block: Supply measured MRT last of Cc1c(-c2ccc(O)cc2)n(Cc2ccc(OCCN3CCCCC3)cc2)c2ccc(O)cc12 [Pipendoxifene] in your reply.
Result block: 6.95 h

* * *

# assayRemarks: Pharmacokinetics (plasma, lung at 24 h) after single oral dosing in male Sprague-Dawley rats
# appliedConditions: male, Sprague-Dawley, rat, in vivo, po, plasma t1/2, range, 250-1000 mg/kg single oral dose
measureName: half-life

Query block: Supply measured half-life of Cc1c(-c2ccc(O)cc2)n(Cc2ccc(OCCN3CCCCC3)cc2)c2ccc(O)cc12 [Pipendoxifene] in your reply.
Result block: 4.71 to 6.06 h

* * *

# assayRemarks: in vivo
# appliedConditions: female, 129S1, mouse, po, 250 mg/kg, tmax
measureName: Tmax at 5 day (h)
I only need the number, in h, no unit after it.

Query block: Supply measured Tmax at 5 day of Cc1c(-c2ccc(O)cc2)n(Cc2ccc(OCCN3CCCCC3)cc2)c2ccc(O)cc12 [Pipendoxifene] in your reply.
Result block: 6

* * *

# assayRemarks: Pharmacokinetics (plasma, lung at 24 h) after single oral dosing in male Sprague-Dawley rats
# appliedConditions: male, Sprague-Dawley, rat, in vivo, po, 750 mg/kg, t1/2, male SD rat plasma, single oral 750 mg/kg (Group 3), individual rats 456, 457, 458
measureName: half-life (h)
I only need the number, in h, no unit after it.

Query block: Supply measured half-life of Cc1c(-c2ccc(O)cc2)n(Cc2ccc(OCCN3CCCCC3)cc2)c2ccc(O)cc12 [Pipendoxifene] in your reply.
Result block: 4.77

* * *

# assayRemarks: in vivo
# appliedConditions: male, Sprague-Dawley, rat, po, 1000 mg/kg, Plasma concentration
measureName: concentration at 4 hr (ng/mL)
I only need the number, in ng/mL, no unit after it.

Query block: Supply measured concentration at 4 hr of Cc1c(-c2ccc(O)cc2)n(Cc2ccc(OCCN3CCCCC3)cc2)c2ccc(O)cc12 [Pipendoxifene] in your reply.
Result block: 335

* * *

# assayRemarks: Pharmacokinetics (plasma and lung tissue) after single and 5-day repeat oral dosing in female 129S1 mice
# appliedConditions: female, 129S1, mouse, in vivo, po, 50 mg/kg, tmax, lung; 50 mg/kg PO single dose
measureName: Tmax (h)
I only need the number, in h, no unit after it.

Query block: Supply measured Tmax of Cc1c(-c2ccc(O)cc2)n(Cc2ccc(OCCN3CCCCC3)cc2)c2ccc(O)cc12 [Pipendoxifene] in your reply.
Result block: 4

* * *

# assayRemarks: in vivo
# appliedConditions: male, Sprague-Dawley, rat, po, 1000 mg/kg, Cmax
measureName: Cmax

Query block: Supply measured Cmax of Cc1c(-c2ccc(O)cc2)n(Cc2ccc(OCCN3CCCCC3)cc2)c2ccc(O)cc12 [Pipendoxifene] in your reply.
Result block: 452 ng/mL

* * *

# assayRemarks: Pharmacokinetics (plasma, lung at 24 h) after single oral dosing in male Sprague-Dawley rats
# appliedConditions: male, Sprague-Dawley, rat, plasma, po, 750 mg/kg, Plasma concentration, male SD rat, single oral 750 mg/kg (Group 3), 6 hr, individual rats 456, 457, 458
measureName: concentration at 6 h (ng/mL)
I only need the number, in ng/mL, no unit after it.

Query block: Supply measured concentration at 6 h of Cc1c(-c2ccc(O)cc2)n(Cc2ccc(OCCN3CCCCC3)cc2)c2ccc(O)cc12 [Pipendoxifene] in your reply.
Result block: 381

* * *

# assayRemarks: Pharmacokinetics (plasma and lung tissue) after single and 5-day repeat oral dosing in female 129S1 mice
# appliedConditions: female, 129S1, mouse, plasma, oral, 50 mg/kg, Mean plasma concentration, 50 mg/kg PO single dose; 4.0 hr
measureName: concentration at 4 h (ng/mL)
I only need the number, in ng/mL, no unit after it.

Query block: Supply measured concentration at 4 h of Cc1c(-c2ccc(O)cc2)n(Cc2ccc(OCCN3CCCCC3)cc2)c2ccc(O)cc12 [Pipendoxifene] in your reply.
Result block: 107

* * *

# assayRemarks: Pharmacokinetics (plasma, lung at 24 h) after single oral dosing in male Sprague-Dawley rats
# appliedConditions: male, Sprague-Dawley, rat, in vivo, Lung/Plasma C24 h ratios, range, Day 1, across the dose range
measureName: Kp at 24 h

Query block: Supply measured Kp at 24 h of Cc1c(-c2ccc(O)cc2)n(Cc2ccc(OCCN3CCCCC3)cc2)c2ccc(O)cc12 [Pipendoxifene] in your reply.
Result block: 97 to 122
